# protocol-summary: Determination of photochemical properties of saponified dyes
# Type: physicochemical
# condition-summary: after saponification; 150 mM KCl, 10 mM HEPES, 50 μM EDTA, pH = 7.22
experimental-endpoint: λem (fluorescence emission maximum) (nm)
State the answer as a number, implicitly in nm.

// solved cases for λem (fluorescence emission maximum) follow
molecule	λem (fluorescence emission maximum) [nm]
COc1cc(NC(=O)c2ccc3c(c2)C(=O)OC32c3ccc(OC(C)=O)cc3Oc3cc(N4CCC4)ccc32)ccc1N(CC(=O)OCOC(C)=O)CC(=O)OCOC(C)=O (centres unmarked)	550
COc1cc(NC(=O)c2ccc3c(c2)C(=O)OC32c3ccc(OC(C)=O)cc3Oc3cc(N4CCCC4)ccc32)ccc1N(CC(=O)OCOC(C)=O)CC(=O)OCOC(C)=O (centres unmarked)	553
COc1cc(NC(=O)c2ccc3c(c2)C(=O)OC32c3ccc(OC(C)=O)cc3Oc3cc(N(C)C)ccc32)ccc1N(CC(=O)OCOC(C)=O)CC(=O)OCOC(C)=O (centres unmarked)	551

Ask: Specify reported λem (fluorescence emission maximum) for the molecule shown: CCCN(CCC)c1ccc2c(c1)Oc1cc(OC(C)=O)ccc1C21OC(=O)c2cc(C(=O)Nc3ccc(N(CC(=O)OCOC(C)=O)CC(=O)OCOC(C)=O)c(OC)c3)ccc21 (centres unmarked)
Result: 553

Ask: Specify reported λem (fluorescence emission maximum) for the molecule shown: CCCCNc1ccc2c(c1)Oc1cc(OC(C)=O)ccc1C21OC(=O)c2cc(C(=O)Nc3ccc(N(CC(=O)OCOC(C)=O)CC(=O)OCOC(C)=O)c(OC)c3)ccc21 (centres unmarked)
Result: 533
